- Test Method Notes: growth suppression of yeast trafficking mutant, preliminary HTS, modulators of trafficking downstream of Golgi apparatus project, 1536-format plate, OD 615 nm (AID 637)
- Run Parameters: yeast transport mutant growth, absorbance 615 nm, 18 h
Calls of active or inactive are those of the source. Rule as the data show it: active = inhibition above about 30%; inactive = the rest.
The reply should name one outcome from active, inactive

Consider the worked cases shown below.
compound=O=C(CSc1ncnc2c1cnn2Cc1ccccc1)Nc1ccc2c(c1)OCCO2 class_name=inactive
compound=CCCCOCP(=O)(CCCC)COCCCC class_name=inactive
compound=CCOC(=O)CSc1nc2cc(C(=O)NCc3ccco3)ccc2c(=O)n1C1CCCCC1 class_name=inactive
compound=CCN(CC)CCN1C(=O)Cn2c(C)c(C)c3cccc1c32 class_name=inactive
compound=COc1cc(OC)c(C2N(C)c3ccccc3N2C)cc1OC class_name=inactive
compound="N#Cc1c(NC(NC(=O)c2ccco2)C(=O)c2ccccc2)sc2c1CCCC2 (stereo unspecified)" class_name=inactive
compound=CCOc1ccc(C(=O)OCc2nnc(-c3cccs3)o2)cc1OC class_name=inactive
compound=CCOC(=O)c1c(C)oc2ccc(O)c(CN3CCCCC3)c12 class_name=inactive
compound="CC1CCCC(C)N1C(=O)COC(=O)c1ccc[nH]c1=O (stereo unspecified)" class_name=inactive
compound="Cc1ccc(C)c(NC(=O)CC(NCCCN2CCOCC2)C(=O)O)c1 (stereo unspecified)" class_name=inactive

Exercise: Which result was noted for this compound in the test: "CCOC(=O)CSc1nnc([C@H](CC(C)C)NC(=O)OC(C)(C)C)o1"
Key: inactive

Exercise: Which result was noted for this compound in the test: "Cc1cccc2cc(CN(CCCO)C(=O)Nc3ccc(Cl)cc3)c(=O)[nH]c12"
Key: inactive

Exercise: Which result was noted for this compound in the test: "O=c1[nH]c(NCc2ccco2)nnc1Cc1ccccc1Cl"
Key: inactive

Exercise: Which result was noted for this compound in the test: "O=c1sc(Nc2ccccc2)nc2ccsc12"
Key: inactive

Exercise: Which result was noted for this compound in the test: "COc1ccc(Oc2nc(Oc3ccc(OC)cc3)nc(Oc3ccc(OC)cc3)n2)cc1"
Key: inactive

Exercise: Which result was noted for this compound in the test: "O=c1c2ccccc2nc(SCc2cccc(F)c2)n1Cc1ccco1"
Key: inactive

Exercise: Which result was noted for this compound in the test: "COc1ccc(OC)c(C(=O)c2coc3ccc(O)c(CN4CCOCC4)c23)c1"
Key: inactive

Exercise: Which result was noted for this compound in the test: "O=C(CCCn1ncn2c(cc3occc32)c1=O)N1CCc2ccccc2C1"
Key: inactive

Exercise: Which result was noted for this compound in the test: "O=C(Nc1cccnc1)c1ccc2c(c1)OCO2"
Key: inactive

Exercise: Which result was noted for this compound in the test: "CCOC(=O)C1=C(CC)Nc2ccccc2N=C1NC(=O)Cn1cnc2ccccc2c1=O"
Key: inactive

Exercise: Which result was noted for this compound in the test: "COC(=O)CN(c1nc(C)c(Cl)c(OC)n1)S(=O)(=O)c1ccc(C)cc1"
Key: inactive

Exercise: Which result was noted for this compound in the test: Cc1ccc(N2CC(C(=O)Nc3nnc(C)s3)CC2=O)cc1 (stereo unspecified)
Key: inactive

Exercise: Which result was noted for this compound in the test: "Cc1cc(C)n(S(=O)(=O)Cc2ccccc2)n1"
Key: inactive

Exercise: Which result was noted for this compound in the test: "CC1CCN(Cc2ccc(-c3nn[nH]n3)cc2)CC1"
Key: active

Exercise: Which result was noted for this compound in the test: COc1cccc(C(c2nnnn2CCc2ccccc2)N2CCN(c3ccccc3)CC2)c1OC (stereo unspecified)
Key: inactive

Exercise: Which result was noted for this compound in the test: "Cn1c(SCCN2CCCCC2)nnc1-c1ccccc1Br"
Key: inactive

Exercise: Which result was noted for this compound in the test: "Cc1nc2ccccc2c2c1C(=O)N(CCC1=CCCCC1)C2=O"
Key: inactive

Exercise: Which result was noted for this compound in the test: CCOC(=O)c1cccnc1SCC(=O)NC(C)CC (stereo unspecified)
Key: inactive

Exercise: Which result was noted for this compound in the test: CC(C)N1C(=O)C2C(C(=O)NC3CCCCC3)C3C=CC2(O3)C1C(=O)NC1CCCC1 (stereo unspecified)
Key: inactive

Exercise: Which result was noted for this compound in the test: "CCOC(=O)N1CCN(C(=O)CSCC(=O)Nc2nc(-c3ccc(OC)cc3)cs2)CC1"
Key: inactive

Exercise: Which result was noted for this compound in the test: "O=C1CCc2cc(S(=O)(=O)N3CCC(C(=O)Nc4nccs4)CC3)ccc2N1"
Key: inactive

Exercise: Which result was noted for this compound in the test: "Cc1ccc(CSC2=NCCN2C(=O)C2CC2)cc1"
Key: inactive
